Entries and their pKd
target-or-test-system: TNFRSF9, Q07011
assay-summary: Kd (SPR)
Please treat pKd as minus the base-10 logarithm of the molar concentration.

unnamed (protein) chain 1: EVQLVQSGAEVKKPGESLRISCKGSGYTFSSYWISWVRQMPGKGLEWMGKIYPGDSYTNYSPSFQGQVTISADKSISTAYLQWSSLKASDTAMYYCARGYGIFDYWGQGTLVTVSS chain 2: SYELTQPPSVSVSPGQTASITCSGDNIGDQYAHWYQQKPGQSPVLVIYQDKNRPSGIPERFSGSNSGNTATLTISGTQAMDEADYYCATYTGFGSLAVFGGGTKLTVL    7.23

INPUT: Field request: pKd | item: unnamed (protein) chain 1: EVQLVQSGAEVKKPGESLRISCKGSGYTFSSYWISWVRQMPGKGLEWMGKIYPGDSYTNYSPSFQGQVTISADKSISTAYLQWSSLKASDTAMYYCTRGYGIFDYWGQGTLVTVSS chain 2: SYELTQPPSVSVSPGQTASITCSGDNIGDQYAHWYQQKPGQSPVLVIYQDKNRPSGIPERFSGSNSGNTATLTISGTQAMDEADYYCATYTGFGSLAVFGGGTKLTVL
OUTPUT: 7.02

INPUT: What pKd value was documented for this binder, unnamed (protein) chain 1: EVQLVQSGAEVKKPGESLRISCKGSGYSFSSYWISWVRQMPGKGLEWMGKIYPGDSYTNYSPSFQGQVTISADKSISTAYLQWSSLKASDTAMYYCARGYGVFDYWGQGTLVTVSS chain 2: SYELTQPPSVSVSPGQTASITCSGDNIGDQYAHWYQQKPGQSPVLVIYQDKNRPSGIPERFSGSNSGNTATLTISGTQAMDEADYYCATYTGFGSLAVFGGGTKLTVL ?
OUTPUT: 6.64
